Assay: Stability/conversion of esters in human liver S9
Format: in vitro ADME
Details: liver S9, pH 7.4, read-out: T1/2 Human Liver S9
Where a name gives a salt, the structure may show the parent alone.
In this section we review reported half-life at 10 μM values for a set of compounds.

Some compounds with recorded half-life at 10 μM:
compound | half-life at 10 μM
CC1=C[C@@H]2CN(C(=O)N2O[C@H](F)C(=O)OCOC(=O)C(C)(C)C)[C@@H]1C(N)=O | < 1 min
CC1=C[C@@H]2CN(C(=O)N2O[C@H](F)C(=O)OC(C(C)C)C(C)C)[C@@H]1C(N)=O | 12.4 min
CCCCCCCCOC(=O)[C@@H](F)ON1C(=O)N2C[C@H]1C=C(C)[C@H]2C(N)=O | 0.39 min

Enquiry: Fill blank: measured half-life at 10 μM of the compound `CC1=C[C@@H]2CN(C(=O)N2O[C@H](F)C(=O)OC(C)C)[C@@H]1C(N)=O` is ____.
Return: 16 min

Enquiry: What value of measured half-life at 10 μM is listed for `CCOC(=O)C(F)(F)ON1C(=O)N2C[C@H]1C(C)=C[C@H]2C(N)=O` ?
Return: 0.7 min

Enquiry: Looking for the measured half-life at 10 μM of `CCOC(=O)C(F)(F)ON1C(=O)N2C[C@H]1C=C(C)[C@H]2C(N)=O` , can you help?
Return: 0.8 min

Enquiry: Request the reported half-life at 10 μM associated with CCOC(=O)[C@H](F)ON1C(=O)N2C[C@H]1C=C(C)[C@H]2C(=O)NOC[C@@H]1CCCN1 [Example 60, TFA salt]
Return: 9.9 min

Enquiry: Param item = `COCCOC(=O)[C@@H](F)ON1C(=O)N2C[C@H]1C=C(C)[C@H]2C(N)=O` ; retrieve measured half-life at 10 μM.
Return: 9.2 min
